The measurements presented in this section are drawn from patent US20090304692A1.

- test-target: UniProt P42345
- Sequence (P42345 1360-2549 limits assumed): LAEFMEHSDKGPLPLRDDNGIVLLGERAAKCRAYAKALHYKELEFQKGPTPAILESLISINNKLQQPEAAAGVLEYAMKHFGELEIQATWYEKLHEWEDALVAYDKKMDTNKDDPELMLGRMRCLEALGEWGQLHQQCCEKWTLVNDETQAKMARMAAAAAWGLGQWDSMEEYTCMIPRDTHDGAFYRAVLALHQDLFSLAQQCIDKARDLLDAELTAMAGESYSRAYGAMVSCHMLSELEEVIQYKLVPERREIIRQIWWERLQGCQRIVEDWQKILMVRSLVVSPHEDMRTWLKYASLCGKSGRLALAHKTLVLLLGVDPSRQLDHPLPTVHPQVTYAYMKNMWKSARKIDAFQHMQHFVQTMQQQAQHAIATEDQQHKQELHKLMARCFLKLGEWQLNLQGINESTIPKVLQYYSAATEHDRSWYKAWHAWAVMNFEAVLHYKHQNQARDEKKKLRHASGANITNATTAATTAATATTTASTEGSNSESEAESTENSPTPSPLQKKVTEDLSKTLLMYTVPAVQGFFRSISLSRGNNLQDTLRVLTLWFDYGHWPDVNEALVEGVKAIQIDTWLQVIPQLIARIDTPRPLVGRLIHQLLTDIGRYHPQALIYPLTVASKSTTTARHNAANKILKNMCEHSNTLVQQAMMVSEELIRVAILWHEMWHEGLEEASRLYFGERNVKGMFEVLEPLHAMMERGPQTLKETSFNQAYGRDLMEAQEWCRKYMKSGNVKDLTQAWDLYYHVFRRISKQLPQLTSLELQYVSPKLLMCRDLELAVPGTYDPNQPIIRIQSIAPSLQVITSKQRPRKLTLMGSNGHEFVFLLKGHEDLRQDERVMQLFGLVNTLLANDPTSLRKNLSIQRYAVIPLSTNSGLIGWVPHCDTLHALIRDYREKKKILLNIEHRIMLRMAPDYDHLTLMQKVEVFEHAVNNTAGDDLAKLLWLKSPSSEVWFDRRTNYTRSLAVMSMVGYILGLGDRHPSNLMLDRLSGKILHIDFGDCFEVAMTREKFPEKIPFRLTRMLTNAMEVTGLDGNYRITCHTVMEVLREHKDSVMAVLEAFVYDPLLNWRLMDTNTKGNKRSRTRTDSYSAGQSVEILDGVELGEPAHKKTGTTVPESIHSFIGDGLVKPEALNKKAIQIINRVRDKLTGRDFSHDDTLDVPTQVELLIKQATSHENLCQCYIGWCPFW
- test-name: mTOR kinase assay (DELFIA format, purified enzyme)
- Type: biochemical
- condition-notes: read-out: IC50 mTOR
Returns the class for an entry based on its IC50. Class ranges: I (below 2 nM), II (2 nM to below 8 nM), III (8 nM or more)

INPUT: Dear colleague, I would appreciate it if you could identify the bin for O=C(Nc1ccncc1)Nc1ccc(-c2nc(C3CCOCC3)nc(N3C4CCC3COC4)n2)cc1 and reply at your convenience.
OUTPUT: I

INPUT: Dear colleague, I would appreciate it if you could identify the bin for O=C(Nc1ccncc1)Nc1ccc(-c2nc(C3=CCOCC3)nc(N3CCOCC3)n2)cc1 and reply at your convenience.
OUTPUT: II

INPUT: Dear colleague, I would appreciate it if you could identify the bin for CCc1nc(-c2ccc(NC(=O)Nc3ccc(C(=O)N4CCC(N(C)C)CC4)cc3)cc2)nc(N2CCOCC2)n1 and reply at your convenience.
OUTPUT: II

INPUT: Dear colleague, I would appreciate it if you could identify the bin for CC(C)Nc1nc(-c2ccc(NC(=O)Nc3ccc(CN(C)C)cc3)cc2)nc(N2C3CCC2COC3)n1 and reply at your convenience.
OUTPUT: II

INPUT: Dear colleague, I would appreciate it if you could identify the bin for CC(C)(C)OC(=O)CNC1CCN(c2nc(-c3ccc(NC(=O)Nc4ccncc4)cc3)nc(N3CC4CCC(C3)O4)n2)CC1 and reply at your convenience.
OUTPUT: III

INPUT: Dear colleague, I would appreciate it if you could identify the bin for O=C(Nc1ccncc1)Nc1ccc(-c2nc(N3CCOCC3)nc(N3C4COCC3C(O)C4)n2)cc1 (stereo not shown) and reply at your convenience.
OUTPUT: I

INPUT: Dear colleague, I would appreciate it if you could identify the bin for CN(C)CC(=O)Nc1ccc(NC(=O)Nc2ccc(-c3nc(N4C5CCC4COC5)nc(N4C5CCC4COC5)n3)cc2)cc1 and reply at your convenience.
OUTPUT: I

INPUT: Dear colleague, I would appreciate it if you could identify the bin for O=C(Nc1ccc(-c2nc(N3CCOCC3)nc(N3C4CCC3COC4)n2)cc1)Nc1ccc(-c2nc(N3CCOCC3)nc(N3C4CCC3COC4)n2)cc1 and reply at your convenience.
OUTPUT: II

INPUT: Dear colleague, I would appreciate it if you could identify the bin for O=C(Nc1ccncc1)Nc1ccc(-c2nc(N3CCC(NCc4ccccc4)CC3)nc(N3CC4CCC(C3)O4)n2)cc1 and reply at your convenience.
OUTPUT: III

INPUT: Dear colleague, I would appreciate it if you could identify the bin for O=C(Nc1ccc(-c2nc(N3CCOCC3)nc(N3C4CCC3COC4)n2)cc1)Nc1ccnc(Cl)c1 and reply at your convenience.
OUTPUT: I

INPUT: Dear colleague, I would appreciate it if you could identify the bin for C[C@H]1COCCN1c1nc(-c2ccc(NC(=O)Nc3ccc(C(=O)N4CC[C@H](N(C)C)C4)cc3)cc2)nc(N2C3CCC2COC3)n1 and reply at your convenience.
OUTPUT: III

INPUT: Dear colleague, I would appreciate it if you could identify the bin for O=C(Nc1ccc(C(=O)N2CCC(N3CCCC3)CC2)cc1)Nc1ccc(-c2nc(N3CCOCC3)nc(N3C4COCC3COC4)n2)cc1 and reply at your convenience.
OUTPUT: I

INPUT: Dear colleague, I would appreciate it if you could identify the bin for CCNC(=O)Nc1ccc(-c2nc(N3CC4CCC(C3)O4)nc(N3CC4CCC(C3)O4)n2)cc1 and reply at your convenience.
OUTPUT: II

INPUT: Dear colleague, I would appreciate it if you could identify the bin for CCNC(=O)Nc1ccc(-c2nc(NC3CCNCC3)nc(N3C4CCC3COC4)n2)cc1 and reply at your convenience.
OUTPUT: III

INPUT: Dear colleague, I would appreciate it if you could identify the bin for CN(C)[C@@H]1CCN(C(=O)c2ccc(NC(=O)Nc3ccc(-c4nc(N5CCOCC5)nc(N5CCOCC5)n4)cc3)cc2)C1 and reply at your convenience.
OUTPUT: I

INPUT: Dear colleague, I would appreciate it if you could identify the bin for CN(C)CCNC1CCN(c2nc(-c3ccc(NC(=O)Nc4ccncc4)cc3)nc(N3CC4CCC(C3)O4)n2)CC1 and reply at your convenience.
OUTPUT: III

INPUT: Dear colleague, I would appreciate it if you could identify the bin for O=C(Nc1ccc(-c2nc(N3CCOCC3)nc(N3CCOCC3)n2)cc1)Nc1ccc(F)cc1F and reply at your convenience.
OUTPUT: III

INPUT: Dear colleague, I would appreciate it if you could identify the bin for CC(C)Oc1nc(-c2ccc(NC(=O)Nc3ccncc3)cc2)nc(N2CC3CCC(C2)O3)n1 and reply at your convenience.
OUTPUT: II

INPUT: Dear colleague, I would appreciate it if you could identify the bin for CC(C)Nc1nc(-c2ccc(NC(=O)Nc3ccc(N4CCC(N(C)C)CC4)cc3)cc2)nc(N2C3CCC2COC3)n1 and reply at your convenience.
OUTPUT: II

INPUT: Dear colleague, I would appreciate it if you could identify the bin for CC(C)N1CCCN(c2nc(-c3ccc(NC(=O)Nc4ccc(C(=O)NCCN(C)C)cc4)cc3)nc(N3CCOCC3)n2)CC1 and reply at your convenience.
OUTPUT: III

INPUT: Dear colleague, I would appreciate it if you could identify the bin for CNC(=O)Nc1ccc(-c2nc(NC(C)C)nc(N3CC4CCC(C3)O4)n2)cc1 and reply at your convenience.
OUTPUT: II

INPUT: Dear colleague, I would appreciate it if you could identify the bin for CN1CCCC1CCNC(=O)c1ccc(NC(=O)Nc2ccc(-c3nc(N4CCOCC4)nc(N4C5CCCC4COC5)n3)cc2)cc1 (stereo not shown) and reply at your convenience.
OUTPUT: I

INPUT: Dear colleague, I would appreciate it if you could identify the bin for O=C(Nc1ccc(C(=O)NCCN2CCCC2)cc1)Nc1ccc(-c2nc(N3CCOCC3)nc(N3C4CCCC3COC4)n2)cc1 and reply at your convenience.
OUTPUT: I

INPUT: Dear colleague, I would appreciate it if you could identify the bin for CC(O)c1ccc(NC(=O)Nc2ccc(-c3nc(N4CCOCC4)nc(N4CCOCC4)n3)cc2)cc1 (stereo not shown) and reply at your convenience.
OUTPUT: I

INPUT: Dear colleague, I would appreciate it if you could identify the bin for NC(=O)CNC1CCN(c2nc(-c3ccc(NC(=O)Nc4ccncc4)cc3)nc(N3CC4CCC(C3)O4)n2)CC1 and reply at your convenience.
OUTPUT: III

INPUT: Dear colleague, I would appreciate it if you could identify the bin for CC(C)(C)OC(=O)N1CC(Nc2nc(-c3ccc(NC(=O)Nc4cccnc4)cc3)nc(N3CCOCC3)n2)C1 and reply at your convenience.
OUTPUT: II

INPUT: Dear colleague, I would appreciate it if you could identify the bin for CN(C)CCNC(=O)c1ccc(NC(=O)Nc2ccc(-c3nc(-c4ccccc4)nc(N4CCOCC4)n3)cc2)cc1 and reply at your convenience.
OUTPUT: III
